assayText: total protein half-life in vivo (active degradation + dilution); higher = more stable protein
runParameters: E. coli NCM3722 delta-hslV; growth: N-lim chemostat; doubling time 6 h
experimentalEndpoint: total protein half-life in vivo

>>> result("MKIGIIGAMEEEVTLLRDKIENRQTISLGGCEIYTGQLNGTEVALLKSGIGKVAAALGATLLLEHCKPDVIINTGSAGGLAPTLKVGDIVVSDEARYHDADVTAFGYEYGQLPGCPAGFKADDKLIAAAEACIAELNLNAVRGLIVSGDAFINGSVGLAKIRHNFPQAIAVEMEATAIAHVCHNFNVPFVVVRAISDVADQQSHLSFDEFLAVAAKQSSLMVESLVQKLAHG [P0AF12]")
"4.42 h"

Now, please, on to the next sequence.
## Input What value of total protein half-life in vivo has been reported for the following sequence? MKKPLRQQNRQIISYVPRTEPAPPEHAIKMDSFRDVWMLRGKYVAFVLMGESFLRSPAFTVPESAQRWANQIRQEGEVTE [P0AE60]
## Output 3.87 h

----------
assayText: total protein half-life in vivo (active degradation + dilution); higher = more stable protein
runParameters: wild type E. coli NCM3722; growth: N-lim chemostat; doubling time 12 h
experimentalEndpoint: total protein half-life in vivo (h)
Report the figure in h without appending any unit label.

Example entries begin here.
>>> numericresult("MNKLQSYFIASVLYVMTPHAFAQGTVTIYLPGEQQTLSVGPVENVVQLVTQPQLRDRLWWPGALLTDSAAKAKALKDYQHVMAQLASWEAEADDDVAATIKSVRQQLLNLNITGRLPVKLDPDFVRVDENSNPPLVGDYTLYTVQRPVTITLLGAVSGAGQLPWQAGRSVTDYLQDHPRLAGADKNNVMVITPEGETVVAPVALWNKRHVEPPPGSQLWLGFSAHVLPEKYADLNDQIVSVLTQRVPD")
7.71
>>> numericresult("MPIRVPDELPAVNFLREENVFVMTTSRASGQEIRPLKVLILNLMPKKIETENQFLRLLSNSPLQVDIQLLRIDSRESRNTPAEHLNNFYCNFEDIQDQNFDGLIVTGAPLGLVEFNDVAYWPQIKQVLEWSKDHVTSTLFVCWAVQAALNILYGIPKQTRTEKLSGVYEHHILHPHALLTRGFDDSFLAPHSRYADFPAALIRDYTDLEILAETEEGDAYLFASKDKRIAFVTGHPEYDAQTLAQEFFRDVEAGLDPDVPYNYFPHNDPQNTPRASWRSHGNLLFTNWLNYYVYQITPYDLRHMNPTLD")
2.14

## Input What value of total protein half-life in vivo has been reported for the following sequence? `MQRETVWLVEDEQGIADTLVYMLQQEGFAVEVFERGLPVLDKARKQVPDVMILDVGLPDISGFELCRQLLALHPALPVLFLTARSEEVDRLLGLEIGADDYVAKPFSPREVCARVRTLLRRVKKFSTPSPVIRIGHFELNEPAAQISWFDTPLALTRYEFLLLKTLLKSPGRVWSRQQLMDSVWEDAQDTYDRTVDTHIKTLRAKLRAINPDLSPINTHRGMGYSLRGL`
## Output 6.73

----------
assayText: total protein half-life in vivo (active degradation + dilution); higher = more stable protein
runParameters: wild type E. coli NCM3722; growth: C-lim chemostat; doubling time 6 h
experimentalEndpoint: total protein half-life in vivo
A complete answer gives the number and then names the unit.

Example entries begin here.
>>> result("MHVKYLAGIVGAALLMAGCSSSNELSAAGQSVRIVDEQPGAECQLIGTATGKQSNWLSGQHGEEGGSMRGAANDLRNQAAAMGGNVIYGISSPSQGMLSSFVPTDSQIIGQVYKCPN [P0AF70]")
"5.95 h"
>>> result("MMNFNNVFRWHLPFLFLVLLTFRAAAADTLLILGDSLSAGYRMSASAAWPALLNDKWQSKTSVVNASISGDTSQQGLARLPALLKQHQPRWVLVELGGNDGLRGFQPQQTEQTLRQILQDVKAANAEPLLMQIRLPANYGRRYNEAFSAIYPKLAKEFDVPLLPFFMEEVYLKPQWMQDDGIHPNRDAQPFIADWMAKQLQPLVNHDS [P0ADA1]")
"6.23 h"
>>> result("MKKRVYLIAAVVSGALAVSGCTTNPYTGEREAGKSAIGAGLGSLVGAGIGALSSSKKDRGKGALIGAAAGAALGGGVGYYMDVQEAKLRDKMRGTGVSVTRSGDNIILNMPNNVTFDSSSATLKPAGANTLTGVAMVLKEYPKTAVNVIGYTDSTGGHDLNMRLSQQRADSVASALITQGVDASRIRTQGLGPANPIASNSTAEGKAQNRRVEITLSPL")
"5.45 h"
>>> result("MSDKFGEGRDPYLYPGLDIMRNRLNIRQQQRLEQAAYEMTALRAATIELGPLVRGLPHLRTIHRQLYQDIFDWAGQLREVDIYQGDTPFCHFAYIEKEGNALMQDLEEEGYLVGLEKAKFVERLAHYYCEINVLHPFRVGSGLAQRIFFEQLAIHAGYQLSWQGIEKEAWNQANQSGAMGDLTALQMIFSKVVSEAGESE")
"6.07 h"
>>> result("MLEMLMQWYRRRFSDPEAIALLVILVAGFGIIFFFSGLLAPLLVAIVLAYLLEWPTVRLQSIGCSRRWATSIVLVVFVGILLLMAFVVLPIAWQQGIYLIRDMPGMLNKLSDFAATLPRRYPALMDAGIIDAMAENMRSRMLTMGDSVVKISLASLVGLLTIAVYLVLVPLMVFFLLKDKEQMLNAVRRVLPRNRGLAGQVWKEMNQQITNYIRGKVLEMIVVGIATWLGFLLFGLNYSLLLAVLVGFSVLIPYIGAFVVTIPVVGVALFQFGAGTEFWSCFAVYLIIQALDGNLLVPVLFSEAVNLHPLVIILSVVIFGGLWGFWGVFFAIPLATLIKAVIHAWPDGQIAQE [P0AFI9]")
"6.12 h"

Now, please, on to the next sequence.
## Input What value of total protein half-life in vivo has been reported for the following sequence? `MTIAIVIGTHGWAAEQLLKTAEMLLGEQENVGWIDFVPGENAETLIEKYNAQLAKLDTTKGVLFLVDTWGGSPFNAASRIVVDKEHYEVIAGVNIPMLVETLMARDDDPSFDELVALAVETGREGVKALKAKPVEKAAPAPAAAAPKAAPTPAKPMGPNDYMVIGLARIDDRLIHGQVATRWTKETNVSRIIVVSDEVAADTVRKTLLTQVAPPGVTAHVVDVAKMIRVYNNPKYAGERVMLLFTNPTDVERLVEGGVKITSVNVGGMAFRQGKTQVNNAVSVDEKDIEAFKKLNARGIELEVRKVSTDPKLKMMDLISKIDK`
## Output 6.91 h

----------
assayText: total protein half-life in vivo (active degradation + dilution); higher = more stable protein
runParameters: wild type E. coli NCM3722; growth: N-lim chemostat; doubling time 12 h
experimentalEndpoint: total protein half-life in vivo (h)
Report the figure in h without appending any unit label.

>>> numericresult("MTQGAVKTTGKRSRAVSAKKKAILSAALDTFSQFGFHGTRLEQIAELAGVSKTNLLYYFPSKEALYIAVLRQILDIWLAPLKAFREDFAPLAAIKEYIRLKLEVSRDYPQASRLFCMEMLAGAPLLMDELTGDLKALIDEKSALIAGWVKSGKLAPIDPQHLIFMIWASTQHYADFAPQVEAVTGATLRDEVFFNQTVENVQRIIIEGIRPR [P0ACU2]")
10.8

## Input What value of total protein half-life in vivo has been reported for the following sequence? MARARGRGRRDLKSEINIVPLLDVLLVLLLIFMATAPIITQSVEVDLPDATESQAVSSNDNPPVIVEVSGIGQYTVVVEKDRLERLPPEQVVAEVSSRFKANPKTVFLIGGAKDVPYDEIIKALNLLHSAGVKSVGLMTQPI [P0ABV6]
## Output 12.6

## Input What value of total protein half-life in vivo has been reported for the following sequence? MKSLQALFGGTFDPVHYGHLKPVETLANLIGLTRVTIIPNNVPPHRPQPEANSVQRKHMLELAIADKPLFTLDERELKRNAPSYTAQTLKEWRQEQGPDVPLAFIIGQDSLLTFPTWYEYETILDNAHLIVCRRPGYPLEMAQPQYQQWLEDHLTHNPEDLHLQPAGKIYLAETPWFNISATIIRERLQNGESCEDLLPEPVLTYINQQGLYR [P0A752]
## Output 7.22

## Input What value of total protein half-life in vivo has been reported for the following sequence? MKVGFIGLGIMGKPMSKNLLKAGYSLVVADRNPEAIADVIAAGAETASTAKAIAEQCDVIITMLPNSPHVKEVALGENGIIEGAKPGTVLIDMSSIAPLASREISEALKAKGIDMLDAPVSGGEPKAIDGTLSVMVGGDKAIFDKYYDLMKAMAGSVVHTGEIGAGNVTKLANQVIVALNIAAMSEALTLATKAGVNPDLVYQAIRGGLAGSTVLDAKAPMVMDRNFKPGFRIDLHIKDLANALDTSHGVGAQLPLTAAVMEMMQALRADGLGTADHSALACYYEKLAKVEVTR [P0ABQ2]
## Output 4.13

## Input What value of total protein half-life in vivo has been reported for the following sequence? `MIEIESRELADIPVLHAYPVGQKDTPLPCVIFYHGFTSSSLVYSYFAVALAQAGLRVIMPDAPDHGSRFSGDAARRLNQFWQILLQSMQEFTTLRAAIAEENWLLDDRLAVGGASMGAMTALGITARHPTVRCTASMMGSGYFTSLARSLFPPLIPETAAQQNEFNNIVAPLAEWEATNHLEQLSDRPLLLWHGLDDDVVPADESLRLQQALSETGRDKLLTCSWQPGVRHRITPEALDAAVTFFRQHL`
## Output 6.87

## Input What value of total protein half-life in vivo has been reported for the following sequence? `MSIKLIAVDMDGTFLSDQKTYNRERFMAQYQQMKAQGIRFVVASGNQYYQLISFFPEIANEIAFVAENGGWVVSEGKDVFNGELSKDAFATVVEHLLTRPEVEIIACGKNSAYTLKKYDDAMKTVAEMYYHRLEYVDNFDNLEDIFFKFGLNLSDELIPQVQKALHEAIGDIMVSVHTGNGSIDLIIPGVHKANGLRQLQKLWGIDDSEVVVFGDGGNDIEMLRQAGFSFAMENAGSAVVAAAKYRAGSNNREGVLDVIDKVLKHEAPFDQ`
## Output 2.73

Origin of the recorded values: the supplement of paper PMC11246515
